# Tested on: 231-BR cells
# Protocol details: MTT-based viability assay
# Assay type: cell-based
# Test settings: Homo sapiens, 48 h, read-out: IC50 viability of 231-BR cells
pIC50: −log10 of the molar value.
Measurement type: pIC50

Recorded pIC50 for C[C@@H](Oc1cc(-n2cnc3ccc(CN4CCN(C)CC4)cc32)sc1C(N)=O)c1ccccc1C(F)(F)F [GSK461364A] , please? ~8.30
